B1: HDV Ribozyme (parent)
chain: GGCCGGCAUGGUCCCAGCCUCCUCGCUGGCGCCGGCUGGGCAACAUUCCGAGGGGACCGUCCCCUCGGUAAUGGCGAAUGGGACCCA

# Variants of: B1
# methodSummary: self-cleavage, relative activity (ratio to wild type); higher = more cleavage; co-transcriptional
Examples of variants with documented self-cleavage follow.
Output: the number by itself.

Known self-cleavage results, listed for orientation:
C13G G73U    0.0361
A42U A43C    0.208
C49A C85U    0.811
G29U U69G    0.0615
G1A U65C    0.0875
C3G C24G    0.102

Sample G11U G74C ; self-cleavage observed: 0.0845

Sample C19U C75A ; self-cleavage observed: 0.0665

Sample G40U U65G ; self-cleavage observed: 0.546

Sample G39U A43U ; self-cleavage observed: 0.148

Sample C48A C75U ; self-cleavage observed: 0.339

Sample C26U G39A ; self-cleavage observed: 0.599

Sample U12A C66U ; self-cleavage observed: 0.317
